biological target: Full-length human MNK1 (Homo sapiens, UniProt Q9BUB5, T385D); test: MNK1 biochemical IC50 assay (Caliper mobility shift)
Sequence (Q9BUB5 1-424 isoform Q9BUB5-2 T344D): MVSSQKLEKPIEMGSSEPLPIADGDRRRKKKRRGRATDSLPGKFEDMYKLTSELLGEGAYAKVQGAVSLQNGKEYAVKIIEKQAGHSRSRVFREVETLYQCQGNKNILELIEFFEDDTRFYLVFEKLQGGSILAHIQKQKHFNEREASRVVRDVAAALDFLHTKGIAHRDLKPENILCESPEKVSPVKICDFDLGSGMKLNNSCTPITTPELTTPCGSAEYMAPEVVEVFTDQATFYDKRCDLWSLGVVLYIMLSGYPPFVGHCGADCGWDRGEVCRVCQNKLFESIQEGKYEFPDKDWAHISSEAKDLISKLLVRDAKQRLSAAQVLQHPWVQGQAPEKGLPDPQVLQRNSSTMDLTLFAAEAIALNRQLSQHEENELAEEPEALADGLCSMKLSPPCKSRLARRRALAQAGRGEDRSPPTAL
measured-quantity: IC50 (nM)

[[record]]
compound_string = "CC(C)Oc1cc(F)ccc1Nc1ncnc2cc(C(=O)NCCN3CCNCC3)n(C)c12"
measured_quantity = "IC50"
unit_of_measure = "nM"
number = 50.1

[[record]]
compound_string = "Cn1ccc2ncnc(Nc3ccc(F)cc3OC(CF)CF)c21"
measured_quantity = "IC50"
unit_of_measure = "nM"
number = 158

[[record]]
compound_string = "CC(C)Oc1cc(F)ccc1Nc1ncnc2ccn(C)c12"
measured_quantity = "IC50"
unit_of_measure = "nM"
number = 126

[[record]]
compound_string = "CC(C)Oc1cc(F)ccc1Nc1ncnc2c(Cl)c(C(=O)NCCCN(C)C)n(C)c12"
measured_quantity = "IC50"
unit_of_measure = "nM"
number = 1260

[[record]]
compound_string = "CC(C)Oc1cc(F)ccc1Nc1ncnc2cc(C(=O)NCCCN(C)C)[nH]c12"
measured_quantity = "IC50"
unit_of_measure = "nM"
number = 79.4


(A) Cn1ccc2ncnc(Nc3ccc(F)cc3OCC(F)F)c21
(B) CO[C@@H]1CCC[C@H](Oc2cc(F)ccc2Nc2ncnc3ccn(C)c23)C1
Would you let me know which has the greater IC50 value, A or B ? State your choice using its label.
A
(A: 316 nM, B: 158 nM)

(a) C[C@@H](CF)Oc1cc(F)ccc1Nc1ncnc2ccn(C)c12
(b) Cn1ccc2ncnc(Nc3ccc(F)cc3O[C@H]3CC[C@H](O)CC3)c21
Pick the one with the larger IC50: a vs b Kindly state the label of the option you pick.
b
(b: 200 nM, a: 100 nM)

###

molecular target: Full-length human MNK2 (Homo sapiens, UniProt Q9HBH9, T379D); test: MNK2 biochemical IC50 assay (Caliper mobility shift)
Sequence (Q9HBH9 whole entry T379D): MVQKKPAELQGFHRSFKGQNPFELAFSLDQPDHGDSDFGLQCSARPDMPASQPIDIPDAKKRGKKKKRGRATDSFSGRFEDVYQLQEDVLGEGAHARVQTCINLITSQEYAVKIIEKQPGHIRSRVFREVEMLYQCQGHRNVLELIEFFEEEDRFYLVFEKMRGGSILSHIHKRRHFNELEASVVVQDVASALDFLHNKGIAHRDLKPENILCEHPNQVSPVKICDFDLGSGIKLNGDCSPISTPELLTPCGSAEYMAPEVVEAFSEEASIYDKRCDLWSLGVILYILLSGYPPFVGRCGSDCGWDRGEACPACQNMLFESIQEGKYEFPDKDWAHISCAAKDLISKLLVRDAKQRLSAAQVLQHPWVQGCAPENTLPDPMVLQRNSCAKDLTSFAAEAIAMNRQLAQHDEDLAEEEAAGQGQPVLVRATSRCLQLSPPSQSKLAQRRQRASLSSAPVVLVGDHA
pIC50: −log10 of the molar value.
measured-quantity: pIC50

[[record]]
compound_string = "Cn1ccc2ncnc(Nc3ccc(F)cc3O[C@H]3CC[C@H](O)CC3)c21"
number = 7.10


(I) CO[C@@H]1CCC[C@H](Oc2cc(F)ccc2Nc2ncnc3ccn(C)c23)C1
(II) CCCn1ccc2ncnc(Nc3ccc(F)cc3OC(C)C)c21
Recorded pIC50 values differ for I and II ; which one is higher? Kindly state the label of the option you pick.
I
(I: 7.10, II: 6.40)

(I) CCOc1ncccc1Nc1ncnc2ccn(C)c12
(II) COc1ncccc1Nc1ncnc2ccn(C)c12
(III) Cn1ccc2ncnc(Nc3ccc(F)cc3O[C@@H]3CCOC3)c21
Sort ascending by pIC50. In plain terms: list the labels in the order you were asked to.
II, I, III
(II: 5.90, I: 6.60, III: 6.90)

(1) CO[C@@H]1CCCC[C@H]1Oc1cc(F)ccc1Nc1ncnc2ccn(C)c12
(2) CC(C)Oc1c(Nc2ncnc3ccn(C)c23)ccc(F)c1F
Sort 1 and 2 by pIC50 descending and give the first. Give the chosen item's label as your response.
1
(1: 6.50, 2: 6.00)

###

target: Full-length human MNK1 (Homo sapiens, UniProt Q9BUB5, T385D); test: MNK1 biochemical IC50 assay (Caliper mobility shift)
measured-quantity: IC50 (nM)

Record excerpt, results attached:
[[record]]
compound_string = "CC(C)Oc1cc(F)ccc1Nc1ncnc2ccn(C(C)C)c12"
test_system = "Full-length human MNK1 (Homo sapiens, UniProt Q9BUB5, T385D)"
number = 1000

[[record]]
compound_string = "CCOc1cc(F)ccc1Nc1ncnc2ccn(C)c12"
test_system = "Full-length human MNK1 (Homo sapiens, UniProt Q9BUB5, T385D)"
number = 200

[[record]]
compound_string = "CC(C)Oc1ccccc1Nc1ncnc2ccn(C)c12"
test_system = "Full-length human MNK1 (Homo sapiens, UniProt Q9BUB5, T385D)"
number = 398

[[record]]
compound_string = "COc1ncccc1Nc1ncnc2ccn(C)c12"
test_system = "Full-length human MNK1 (Homo sapiens, UniProt Q9BUB5, T385D)"
number = 1580

[[record]]
compound_string = "CC(C)Oc1cc(Cl)ccc1Nc1ncnc2ccn(C)c12"
test_system = "Full-length human MNK1 (Homo sapiens, UniProt Q9BUB5, T385D)"
number = 158


(P) CCn1ccc2ncnc(Nc3ccc(F)cc3OC(C)C)c21
(Q) CCOc1ncccc1Nc1ncnc2ccn(C)c12
Kindly identify which of P and Q has the larger recorded IC50 value. Response format: the label of the selected entry.
Q
